Attribute: damage to plant (100=total damage to plant; 0=no damage to plant), ECHCG
Test system: plants
Assay overview: Test D post-emergence, other plants of Tables D2 and D4
Assay type: in vivo
Condition label: post-emergence, ECHCG, rate 130, evaluated after 15 d
Answer with the value's number alone.

Here's what some known entries look like.
1) CCn1nc([C@H]2CN(C)C(=O)[C@@H]2C(=O)Nc2cccc(F)c2F)c2c(F)cccc21 [Compound 7]
20
2) CN1CC(c2cc(C(F)(F)F)n(C)n2)C(C(=O)Nc2cccc(F)c2C(F)(F)F)C1=O (racemic) [Compound 19]
10

Problem: API: value(readout= damage to plant (100=total damage to plant; 0=no damage to plant), ECHCG, system= plants, query= CN1CC(c2cc(C(F)(F)F)n(C)n2)C(C(=O)Nc2ccc(F)c(F)c2F)C1=O (racemic) [Compound 17] )
Result: 80

Problem: API: value(readout= damage to plant (100=total damage to plant; 0=no damage to plant), ECHCG, system= plants, query= CN1CC(c2cc(C(F)(F)F)n(C)n2)C(C(=O)Nc2ccc(F)cc2C(C)(F)F)C1=O (racemic) [Compound 26] )
Result: 0
